target: T1, recombinant purified FRα (ECL assay calibrator) (human, UniProt P15328 25-234); assay: ECL sandwich on FRα, signal to background; capture 19D4.B7; binder = detection Ab
T1 construct: Calibrator of the ECL sandwich assays; also called FRα calibrator; FRα standard
T1 sequence (P15328 25-234 limits assumed): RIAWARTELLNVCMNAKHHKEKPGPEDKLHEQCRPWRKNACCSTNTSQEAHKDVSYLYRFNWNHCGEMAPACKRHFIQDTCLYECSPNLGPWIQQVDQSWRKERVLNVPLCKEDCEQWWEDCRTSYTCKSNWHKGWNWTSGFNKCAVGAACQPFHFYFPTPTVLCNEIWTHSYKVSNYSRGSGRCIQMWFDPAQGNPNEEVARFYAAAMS
What Average of S/B was measured for each of the following?
Give bare numbers.

Monoclonal antibody 26A9.C4 (antibody, mouse IgG1, V domains shown, Murine IgG1 kappa from hybridoma; also called ATCC PTA-123092) VH: SGARELVKPGASVKLSCKTSGFTFSSSFISWLKQKPGQSLEWIAWIYGGNGGTSYNQNFTGKAQLTVDTSSSTAYMQFSSLTTEDSAVYYCASETYGNYWYFDVWGAGTTVTVSS VL: QSPASLSASVGDTVTITCRASGNIHNYLAWYQQKQGKSPQLLVYNAKTLADGVPSRFSGSGSGTQYSLKINSLQPEDFGNYYCQHFWSTPYTFGGGTKLEIK    250

Please give Average of S/B, item by item, for the list that follows.
1. Monoclonal antibody 6A2.G7 (antibody, mouse IgG1, V domains shown, Murine IgG1 kappa from hybridoma; also called ATCC PTA-123093) VH: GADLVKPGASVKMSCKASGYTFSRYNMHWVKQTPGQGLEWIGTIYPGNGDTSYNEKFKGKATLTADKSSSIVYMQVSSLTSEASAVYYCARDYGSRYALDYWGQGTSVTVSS VL: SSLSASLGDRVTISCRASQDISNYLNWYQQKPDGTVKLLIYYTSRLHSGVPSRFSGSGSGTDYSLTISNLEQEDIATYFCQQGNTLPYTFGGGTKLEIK
2. Monoclonal antibody 1C6.E12.G8 (antibody, mouse IgG1, V domains shown, Murine IgG1 kappa from hybridoma; also called ATCC PTA-123091) VH: SGARELVKPGASVKLSCKTSGFTFNSSYITWLKQKPGQSLEWIAWIYAGNGGTTYNQKFTGKAQLTVDTSSSTAYMQFSSLTTEDSAIYYCASETYTNYWYFDVWGSGTTVTVSS VL: QSPASLSASVGETVTITCRASGNIHNYLAWYQQKQGKSPQLLVYNAKTLADGVPSRFSGSGSGTQYSLKINSLQPEDFGSYYCQHFWSTPYTFGGGTKLEIK
3. Monoclonal antibody 1A8.G11.E7 (antibody, mouse IgG1, V domains shown, Murine IgG1 kappa from hybridoma; also called ATCC PTA-123100) VH: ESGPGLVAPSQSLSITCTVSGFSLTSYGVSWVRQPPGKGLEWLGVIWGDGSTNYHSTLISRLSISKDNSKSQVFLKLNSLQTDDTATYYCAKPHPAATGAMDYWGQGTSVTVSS VL: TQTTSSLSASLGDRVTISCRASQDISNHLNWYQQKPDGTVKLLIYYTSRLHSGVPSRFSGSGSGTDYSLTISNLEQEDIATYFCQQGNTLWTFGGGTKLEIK
4. Monoclonal antibody 24H8.D3 (antibody, mouse IgG1, V domains shown, Biotin-conjugated when used as capture antibody in the ECL assay; also called ATCC PTA-123090) VH: QVQLKESGPGLVAPSQSLSITCTVSGFSLTSYGVSWVRQPPGKGLEWLGVIWGDGSTNYHSTLISRLSISKDNSKSQVFLKLNSLQTDDTATYYCAKPHPAATGAMDYWGQGTSVTVSS VL: DIQMTQTTSSLSASLGDRVTISCRASQDISNHLNWYQQKPDGTIKLLIYYTSKLHSGVPSRFSGSGSGTDYSLTISNLEQEDIATYFCQQGNTLWTFGGGTKLEIK

[145, 449, 310, 332]
